- Test system: T-47D
- Assay comment: Caspase cascade activation assay (N-(Ac-DEVD)-N'-ethoxycarbonyl-R110 fluorogenic substrate) in T-47D cells
- Format: cell-based
- Stated conditions: T-47D human breast cancer cells, 24 h incubation; ratio of net RFU of compound to control
Readings of T-47D Ratio (caspase activity) for the listed compounds
Answer with a bare number; do not write a unit.

Answered examples (5):
{"columns": ["Compound", "Assayed system", "T-47D Ratio (caspase activity)"],
 "data": [
  ["COc1cc(C2CC(OC)Oc3cc(N(C)C)ccc32)cc(Br)c1OC (stereo not shown)", "T-47D", 6.8],
  ["COc1ccc2c(c1)OC(O)CC2c1cc(OC)c(OC)c(OC)c1 (stereo not shown)", "T-47D", 6.0],
  ["COc1ccc2c(c1)OCC(C#N)C2c1cc(OC)c(OC)c(OC)c1 (stereo not shown)", "T-47D", 9.6],
  ["COc1ccc2c(c1)OC=C(C#N)C2c1cc(OC)c(OC)c(OC)c1 (stereo not shown)", "T-47D", 6.7],
  ["COc1cc(C2CC(OC)Oc3c2ccc2c3ccn2C)cc(Br)c1OC (stereo not shown)", "T-47D", 4.5]
]}

(Q) Quick one: T-47D Ratio (caspase activity) for COc1cc(C2CC(O)Oc3c2ccc2cc[nH]c32)cc(Br)c1OC (stereo not shown) ?
(A) 6.8

(Q) Could you tell me which T-47D Ratio (caspase activity) is on file for COC1CC(c2cc(Cl)cc(Cl)c2)c2ccc(N)cc2O1 (stereo not shown) ?
(A) 1.2

(Q) Please report the recorded T-47D Ratio (caspase activity) for COc1cc(C2CC(O)Oc3c2ccc2cccnc32)cc(Br)c1OC (stereo not shown) .
(A) 6.5

(Q) Field request: T-47D Ratio (caspase activity) | item: COc1cc(C2CC(O)Oc3c2ccc2[nH]c(=O)[nH]c32)cc(Br)c1OC (stereo not shown)
(A) 6.0

(Q) Need T-47D Ratio (caspase activity) of COc1cc(C2CC(O)Oc3c2ccc2c3ccn2C)cc(Br)c1OC (stereo not shown) , thanks.
(A) 6.0

(Q) Dear colleague, I am looking for the recorded T-47D Ratio (caspase activity) of the following compound: COc1cc(C2CC(O)Oc3c2ccc2c3ccn2C)cc(OC)c1OC (stereo not shown)
(A) 10.1

(Q) Which value of T-47D Ratio (caspase activity) has been reported for COc1cc(C2CC(OC(C)=O)Oc3cc(N(C)C)ccc32)cc(Br)c1OC (stereo not shown) in the records?
(A) 5.2

(Q) Name the recorded T-47D Ratio (caspase activity) for COc1cc(C2CC(O)Oc3cc(N(C)C)ccc32)cc(Br)c1OC (stereo not shown) .
(A) 14.6
